The reported measurements were obtained from patent US11149035B2.

Known IC50 of a selection of compounds
tgt: haematopoietic prostaglandin D synthase (H-PGDS) (Homo sapiens)
Construct: Full length human H-PGDS cDNA (Invitrogen Ultimate ORF IOH13026) was amplified by PCR; 6-His (N); TEV protease cleavage site (N); made in house; host or cells: E. coli BL21 (DE3*)
Sequence (O60760 whole entry): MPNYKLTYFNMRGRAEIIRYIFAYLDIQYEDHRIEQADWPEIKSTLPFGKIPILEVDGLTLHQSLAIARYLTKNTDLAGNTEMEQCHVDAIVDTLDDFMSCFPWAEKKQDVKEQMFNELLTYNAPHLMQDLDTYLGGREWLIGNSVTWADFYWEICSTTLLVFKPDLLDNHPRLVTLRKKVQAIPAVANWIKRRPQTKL
procedureText: H-PGDS RapidFire high throughput mass spectrometry assay (conversion of PGH2 to PGD2)
Type: biochemical
conditionLabel: 10 nM H-PGDS, PGH2 formed in situ by COX-2 from arachidonic acid; four parameter curve fit; read-out: Potency Range (mean pIC50) (converted)

- molSmiles: "CC(C)(O)[C@H]1CC[C@H](NC(=O)c2cnc3nc(N4CCC4)ncc3c2)CC1"
  IC50: "10 to 79.4 nM"
- molSmiles: "C[C@H]1CCN1c1cc2ncc(C(=O)N[C@H]3CC[C@H](C(C)(C)O)CC3)cc2cn1"
  IC50: "< 10 nM"
- molSmiles: "O=C(N[C@H]1C[C@](O)(C(F)(F)F)C1)c1cnc2cc(C3CC3)ncc2c1"
  IC50: "100 to 1000 nM"
- molSmiles: "O=C(N[C@H]1CC[C@H](N2CC(F)(F)C2)CC1)c1cnc2cc(C3CC3)ncc2c1"
  IC50: "10 to 79.4 nM"
- molSmiles: "O=C(N[C@H]1CCNC1=O)c1cnc2cc(C3CC3)ncc2c1"
  IC50: "10 to 79.4 nM"
- molSmiles: "C[C@@H]1CCN1c1cc2ncc(C(=O)N[C@H]3CC[C@H](C(C)(C)O)CC3)cc2cn1"
  IC50: "100 to 1000 nM"
- molSmiles: "C[C@H]1CCN1c1cc2ncc(C(=O)N[C@@H]3C(=O)NCC3(C)C)cc2cn1"
  IC50: "100 to 1000 nM"
- molSmiles: "COc1cc2ncc(C(=O)N[C@H]3CC[C@H](C(C)(C)O)CC3)cc2cn1"
  IC50: "10 to 79.4 nM"
- molSmiles: "CC(C)(O)[C@H]1C[C@H](NC(=O)c2cnc3nc(C4CC4)ccc3c2)C1"
  IC50: "10 to 79.4 nM"
- molSmiles: "O=C(N[C@H]1C[C@H](N[C@H](CO)C(F)(F)F)C1)c1cnc2cc(C3CC3)ncc2c1"
  IC50: "100 to 1000 nM"
